Give measured cytotoxicity for each item. Keep answers brief.
Protocol description: cytotoxicity in HPDE-C7 cells, cell-based, fluorescence, HTS (AID 430);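 also: cells exposed to compound for 48 hours before viability readout; 0% = vehicle and 100% = reference cytotoxic drug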
Condition label: HPDE-C7 pancreatic duct cells viability, at 10 µM, stronger effect = higher value
Screen size: about 63,000 compounds; about 1,100 (1.7%) were called active. What follows is part of a selection rich in actives, with near analogues and random picks from the rest. Results with a measured potency or affinity are listed apart.

For orientation, consider the following solved cases.
compound=CCOC(=O)c1ccc(NC(=O)CCc2nc(-c3ccc(Cl)cc3)no2)cc1 readout_value="-3.7% (inactive)"
compound=CCn1c(SCC(=O)N2CCCCC2)nnc1-c1ccc(S(=O)(=O)N2CCN(C)CC2)cc1 readout_value="-22% (inactive)"

# batch: return cytotoxicity for each of the 5 compounds below
1. COc1ccc(C(=O)N2CCN(c3ccc(C)cc3C)CC2)cc1OC
2. N#Cc1c(N)nc2c(c1N)CC(=O)N2c1ccccc1-c1ccccc1
3. c1ccc(Cn2ncc3c(NCc4ccco4)ncnc32)cc1
4. COc1ccccc1-c1cc(C(=O)Nc2ccc(F)cc2F)no1
5. Cc1ccc(-n2ncc3c(NCc4ccco4)ncnc32)c(C)c1

["-9.6% (inactive)", "0.1% (inactive)", "8.9% (inactive)", "-11.9% (inactive)", "-6.7% (inactive)"]

# batch: return cytotoxicity for each of the 2 compounds below
1. CC(C)OC(=O)CSc1nnc(-c2cnccn2)n1-c1ccc(Cl)cc1
2. CN1CCN(c2ccccc2NC(=O)Cc2cn(C)c3ccccc23)CC1

1. 9.2% (inactive)
2. -5.4% (inactive)

# batch: return cytotoxicity for each of the 4 compounds below
1. CCOC(=O)c1ccc(NC(=O)CCc2nc(-c3ccccc3)no2)cc1
2. COc1ccc(OC)c(-c2cc(C(=O)Nc3cc(C)n(Cc4ccc(Cl)cc4)n3)no2)c1
3. Cc1noc(C)c1S(=O)(=O)Nc1ccc(C(=O)N2CCc3ccccc3C2)cc1
4. O=C(Nc1cccc(NC(=O)c2ccc(-c3cccc(Br)c3)o2)c1)c1ccco1

1: -1.1% (inactive); 2: 62.5% (active); 3: -2.2% (inactive); 4: 63% (active)

# batch: return cytotoxicity for each of the 8 compounds below
1. COc1ccc(CNC(=O)c2cc(-c3ccccc3OC)on2)cc1
2. Cc1cccc(N2CCN(C(=O)c3ccncc3)CC2)c1C
3. CCOC(=O)c1ccc(NC(=O)CCc2nc(-c3ccccc3Cl)no2)cc1
4. Clc1ccc(-n2ncc3c(NCc4ccco4)ncnc32)cc1
5. COc1cc(C(=O)N2CCN(c3cccc(C)c3C)CC2)cc(OC)c1OC
6. CCOc1cc(S(=O)(=O)NCC2OCCc3ccccc32)c(OCC)cc1-n1cnnn1 (stereo unspecified)
7. CC(=O)Nc1ccc(-n2c(C)nc(=O)c(-c3ccccc3)c2C)cc1
8. COc1cc(C(=O)N2CCN(c3ccc(C)cc3C)CC2)cc(OC)c1OC

["-1.1% (inactive)", "34.4% (inactive)", "74.8% (active)", "17.4% (inactive)", "67.4% (active)", "2.3% (inactive)", "2.9% (inactive)", "53.4% (active)"]

* * *

Protocol description: cytotoxicity in HPDE-C7 cells, cell-based, fluorescence, HTS (AID 430)
Condition label: HPDE-C7 pancreatic duct cells viability, at 10 µM
About 1,100 (1.7%) of roughly 63,000 compounds were called active. Rule as the data show it: active = cytotoxicity above about 50%; inactive = the rest. The list comes from a sample in which actives are over-represented; it also holds close analogues and randomly drawn compounds. Entries with a potency or affinity are not part of this list.
Choose one outcome from this list and give only that: true (active), false (inactive)

Field: example entries. Status: answers known.
compound=OCCSc1nc(-c2cccnc2)nc2ccccc12 discrete_label=false
compound=COc1ccc(C(=O)CSc2nnc(-c3ccco3)n2C)cc1 discrete_label=false

Which result was noted for this compound in the test: COc1ccc(OC)c(Nc2cc(-c3ccccc3)nc(N)n2)c1 true

Which result was noted for this compound in the test: O=C(NCc1ccc2c(c1)OCO2)c1ccc(-c2ccc(Cl)cc2)o1 true

Which result was noted for this compound in the test: CCOC(=O)c1c(CN2CCCCC2C)oc2ccc(OC)cc12 (stereo not given) false

Which result was noted for this compound in the test: CC(NC(=O)CC12CC3CC(CC(C3)C1)C2)C(=O)O (stereo not given) false

Which result was noted for this compound in the test: CCn1c(-c2ccco2)nc2ccccc21 false

Which result was noted for this compound in the test: Cc1ccc(S(=O)(=O)C2(S(=O)(=O)c3ccc(C)cc3)CCCC2)cc1 true

Which result was noted for this compound in the test: COc1ccc(-n2c(Cc3cccn3C)nnc2SCC(=O)Nc2ccccc2F)cc1 false

Which result was noted for this compound in the test: CCOc1ccc2nc(C)cc(C(=O)O)c2c1 false

Which result was noted for this compound in the test: Cc1ccc(S(=O)(=O)C2(C(=O)N3CCCCCC3)CC2)cc1 false

Which result was noted for this compound in the test: CCOC(=O)c1ccc2c(c1)nc(SCc1cn3ccsc3n1)n2CC false

Which result was noted for this compound in the test: O=S(=O)(c1ccccc1)C1(S(=O)(=O)c2ccccc2)CCCC1 false

Which result was noted for this compound in the test: Cc1cc(O)ccc1Nc1nc(-c2sc(N)nc2C)cs1 false

Which result was noted for this compound in the test: Cc1cc(C)c2cc(C#N)c(SCC(=O)NCC3CCCO3)nc2c1 (stereo not given) false

* * *

Give measured cytotoxicity for each item. Keep answers brief.
Protocol description: cytotoxicity in HPDE-C7 cells, cell-based, fluorescence, HTS (AID 430)
Condition label: HPDE-C7 pancreatic duct cells viability, at 10 µM, stronger effect = higher value
The whole screen tested about 63,000 compounds, of which about 1,100 (1.7%) were called active. This excerpt belongs to a sample that is enriched for actives. Entries with a potency or affinity are not part of this list.
Answers are plain numbers, in %.

For orientation, consider the following solved cases.
molecule="CN(CC(O)COc1ccc(OCC(O)CN(C)C2CCCCC2)cc1)C1CCCCC1 (centres undefined)" readout=cytotoxicity readout_value=7.7
molecule=CC1(C)Cc2c(C#N)c(N3CCOCC3)nc(Cc3ccccc3)c2CO1 readout=cytotoxicity readout_value=46.8
molecule=Cc1cc(C)c2nc(N3CCCN(C(=O)c4ccco4)CC3)c(C#N)cc2c1 readout=cytotoxicity readout_value=57.4

Kindly review the next molecule as well.
Item: Cc1cc(C)c2nc(C(F)(F)F)nc(N3CCN(C(=O)c4ccco4)CC3)c2c1 | cytotoxicity: 3.3

* * *

Give measured cytotoxicity for each item. Keep answers brief.
Protocol description: cytotoxicity in HPDE-C7 cells, cell-based, fluorescence, HTS (AID 430);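 also: cells exposed to compound for 48 hours before viability readout; 0% = vehicle and 100% = reference cytotoxic drug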
Condition label: HPDE-C7 pancreatic duct cells viability, at 10 µM, stronger effect = higher value
The whole screen tested about 63,000 compounds, of which about 1,100 (1.7%) were called active. What follows is part of a selection rich in actives, with near analogues and random picks from the rest. Potency and affinity values are given separately.

structure_smiles=CCN(CC)c1ccc2cc(C(=O)Nc3ccccn3)c(=O)oc2c1 readout_value="9.8% (inactive)"
structure_smiles=COc1ccccc1-n1c(SC)nc(O)cc1=O readout_value="4.6% (inactive)"
structure_smiles=O=c1oc2ccc3ccccc3c2cc1-c1nnc(-c2ccccc2)o1 readout_value="13.4% (inactive)"

# batch: return cytotoxicity for each of the 3 compounds below
1. COc1ccc(-n2c(Cc3cccn3C)nnc2SCC(=O)Nc2cc(Cl)ccc2OC)cc1
2. Cc1ccnc(SCC(=O)Nc2oc(-c3ccccc3)c(-c3ccccc3)c2C#N)n1
3. CCOC(=O)N1CCN(C/C(C)=C/c2ccccc2)CC1

["-0.9% (inactive)", "24.1% (inactive)", "-6% (inactive)"]

* * *

Protocol description: cytotoxicity in HPDE-C7 cells, cell-based, fluorescence, HTS (AID 430);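 also: cells exposed to compound for 48 hours before viability readout; 0% = vehicle and 100% = reference cytotoxic drug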
Condition label: HPDE-C7 pancreatic duct cells viability, at 10 µM, stronger effect = higher value
Screen size: about 63,000 compounds; about 1,100 (1.7%) were called active. The sample as a whole holds a higher share of actives than the screen did. Potency and affinity values are given separately.
Give measured cytotoxicity for each item. Keep answers brief.
Numbers only, in %.

For orientation, consider the following solved cases.
molecule=CCN1CCN(CC(=O)Nc2ccccc2)C(=O)C1=O readout_value=-4.7
molecule=CCOc1ccc(Cn2nnc(C(=O)NCc3ccc(OC)cc3)c2N)cc1 readout_value=-14.5
molecule=Cc1ccc(-c2cn3cccnc3n2)cc1NC(=O)c1c(-c2ccccc2Cl)noc1C readout_value=40.2

# batch: return cytotoxicity for each of the 2 molecules below
1. COc1ccc(-c2nc(CS(=O)CC(=O)NCc3ccco3)c(C)o2)cc1OC (stereo not drawn)
2. CCOc1ccc(C2C=C(c3ccc(C)cc3)Nc3nnnn32)cc1 (stereo not drawn)

2.9
-0.9

* * *

Protocol description: cytotoxicity in HPDE-C7 cells, cell-based, fluorescence, HTS (AID 430);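 also: cells exposed to compound for 48 hours before viability readout; 0% = vehicle and 100% = reference cytotoxic drug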
Condition label: HPDE-C7 pancreatic duct cells viability, at 10 µM, stronger effect = higher value
In all, about 63,000 compounds went through this assay and about 1,100 (1.7%) were called active. This is one part of a sample in which actives are shown more often than they occur. Entries with a potency or affinity are not part of this list.
Give measured cytotoxicity for each item. Keep answers brief.
Answers are plain numbers, in %.

For orientation, consider the following solved cases.
molecule=CCCSc1nc2c(cnn2-c2ccc(F)cc2)c(=O)[nH]1 readout_value=-9.3
molecule=COc1ccc(Nc2cc(C(=O)NCCCN3CCN(C)CC3)c3ccccc3n2)c(OC)c1 readout_value=2
molecule="COc1ccc(C2CC(=O)c3cnc(NC(=O)c4cc(OC)cc(OC)c4)nc3C2)cc1 (stereo unspecified)" readout_value=-16.4
molecule="O=C1CC(c2cccnc2)c2cc3c(cc2N1)OCCO3 (stereo unspecified)" readout_value=5.1
molecule=Cc1ccc(S(=O)(=O)CCC(=O)OCC(=O)Nc2cc(C)on2)cc1 readout_value=-14.2
molecule=Cc1cc(-c2ccccc2C(=O)O)on1 readout_value=-13.2

# batch: return cytotoxicity for each of the 5 molecules below
1. CC(=O)[C@@H]1[C@@H]2C(=O)N(Cc3ccccc3)C(=O)[C@@H]2C2c3ccccc3C=CN21 (stereo partly specified)
2. CCCCCSc1nc2c(cnn2-c2ccccc2)c(=O)[nH]1
3. COc1cccc(S(=O)(=O)Nc2cccnc2)c1
4. Cc1ccc(S(=O)(=O)NC(=O)Nn2c(C)nnc2C)cc1
5. COc1cc(NC(=O)Nc2ccccc2)c(OC)cc1NC(=O)CN1CCCCC1

1. 3.9
2. 57.7
3. -10.8
4. -7.7
5. 6.1

# batch: return cytotoxicity for each of the 7 molecules below
1. CCCOc1c(OC)cccc1C1CC(=O)Nc2cc(OC)c(OC)c(OC)c21 (stereo unspecified)
2. CCOCCCNC(=O)C(c1ccc(Cl)cc1)N1CCN(C(=O)c2ccco2)CC1 (stereo unspecified)
3. O=C1CC(N2CCN(c3ccccc3)CC2)C(=O)N1c1ccc2c(c1)OCCO2 (stereo unspecified)
4. CCOC(=O)c1cccc(NC(=O)c2cnc3ccccc3n2)c1
5. Cc1ccc(NC(=O)Cn2c(=O)n(Cc3ccco3)c(=N)c3c4c(sc32)COC(C)(C)C4)cc1
6. CC1(C)Cc2c(sc3c2c(=N)n(Cc2ccco2)c(=O)n3CC(=O)Nc2ccccc2)CO1
7. O=C1CC(c2cccs2)c2cc3c(cc2N1)OCO3 (stereo unspecified)

1: 10.7; 2: -11.6; 3: -4.9; 4: 0.8; 5: 24.6; 6: 5.3; 7: 1
